Origin of the recorded values: patent US20120010075A1

- Tested on: Leptosphaeria nodorum (LEPTNO)
- test_protocol: Isolated metal-hydrazone complexes versus parent hydrazones, in vitro, Leptosphaeria nodorum (Example 31, Table 7)
- Assay type: cell-based
- stated_conditions: Parastagonospora nodorum; 0.1 μg/mL; copper-minus medium; 72 h
inhibition at 0.1 µg/mL by entry:
Could you give me the number in %? Just the number is fine.

molecule	measurement_unit	inhibition at 0.1 µg/mL
COc1cccc(/C(C)=N/NC(=O)c2cccc(Cl)c2)c1O [Example 304]	%	13.3
O=C(N/N=C/c1ccc(Cl)c(Cl)c1O)c1ccc(Cl)cc1 [Example 359]	%	24.1
COc1cccc(/C(C)=N/NC(=O)c2ccccc2C)c1O [Example 300]	%	2.5
Cc1ccccc1C(=O)N/N=C/c1cc(Cl)cc(Cl)c1O [Example 77]	%	10.6

Enquiry: Entry COc1cccc(/C(C)=N/NC(=O)c2ccccc2Cl)c1O [Example 303] : reported inhibition at 0.1 µg/mL = ?
Return: 10.6

Enquiry: Can you share its inhibition at 0.1 µg/mL? I mean this molecule: Cc1ccc(C(=O)N/N=C/c2cc(Br)cc(F)c2O)cc1 [Example 411]
Return: 32.1

Enquiry: Given the molecule C/C(=N\NC(=O)c1ccc(Cl)cc1)c1cc(Cl)cc(Cl)c1O [Example 136] , what is its reported inhibition at 0.1 µg/mL?
Return: 34.7

Enquiry: // returns reported inhibition at 0.1 µg/mL for input O=C(N/N=C/c1c(C(F)(F)F)ccc(Cl)c1O)c1ccc(Cl)cc1 [Example 452]
Return: 19.3

Enquiry: // returns reported inhibition at 0.1 µg/mL for input O=C(N/N=C/c1cccc(Cl)c1O)c1ccccc1 [Example 231]
Return: 10.7

Enquiry: Name the reported inhibition at 0.1 µg/mL value associated with the molecule O=C(N/N=C/c1cc(Cl)cc(Cl)c1O)c1ccccc1 [Example 16]
Return: 19.9

Enquiry: Any idea what its inhibition at 0.1 µg/mL is? The molecule is O=C(N/N=C/c1cc(Cl)cc(C(F)(F)F)c1O)c1ccccc1 [Example 320]
Return: 22.1

Enquiry: What inhibition at 0.1 µg/mL value was documented for this molecule, O=C(N/N=C/c1ccc(Cl)c(Cl)c1O)c1ccccc1 [Example 238] ?
Return: 20

Enquiry: Record request: inhibition at 0.1 µg/mL value, item O=C(N/N=C/c1cc(Cl)ccc1O)c1ccccc1 [Example 20]
Return: 14.7

Enquiry: // lookup inhibition at 0.1 µg/mL for C/C(=N\NC(=O)c1cccc(Cl)c1)c1cc(Cl)cc(Cl)c1O [Example 135]
Return: 20.6

Enquiry: Requested read-out: inhibition at 0.1 µg/mL. Entry: COc1cccc(/C(C)=N/NC(=O)c2ccccc2)c1O [Example 299]
Return: 18.6

Enquiry: Which inhibition at 0.1 µg/mL is reported for this molecule? O=C(N/N=C/c1cccc(C(F)(F)F)c1O)c1ccc(Cl)cc1 [Example 348]
Return: 23.9

Enquiry: Quick check: inhibition at 0.1 µg/mL of O=C(N/N=C/c1cc(Cl)cc(Cl)c1O)c1c(Cl)cccc1Cl [Example 43] ?
Return: 3.6

====

Entries and their LEPTNO % Inhn. Plus Copper Observed values follow.
- Test system: Leptosphaeria nodorum (LEPTNO)
- test_protocol: In vitro fungitoxicity of hydrazones with and without copper towards Leptosphaeria nodorum (Example 26)
- Assay type: cell-based
- stated_conditions: copper-plus medium (CuCl2 10 μM); test compound Concn. 0.05 μg/mL; 72 h at 25° C.
Give the quantity in %, number only.

molecule	system_tested	measurement_unit	data_value
C/C(=N\NC(=O)c1ccccc1Cl)c1cccc(Cl)c1O [Example 496]	Leptosphaeria nodorum (LEPTNO)	%	97.8
N#Cc1cc(Br)c(O)c(/C=N/NC(=O)c2ccccc2)c1 [Example 306]	Leptosphaeria nodorum (LEPTNO)	%	95.2
O=C(N/N=C/c1cc(C(F)(F)F)ccc1O)c1cccc(Cl)c1 [Example 439]	Leptosphaeria nodorum (LEPTNO)	%	100.0
Cc1cccc(C(=O)N/N=C/c2cc(Cl)cc(C(F)(F)F)c2O)c1 [Example 376]	Leptosphaeria nodorum (LEPTNO)	%	96.5

Turning now to a further record.
Enquiry: Field request: LEPTNO % Inhn. Plus Copper Observed | item: C/C(=N\NC(=O)c1ccc(C)cc1)c1cc(C)ccc1O [Example 314]
Return: 97.7

====

inhibition of growth at 0.05 µg/mL for assorted compounds
- Tested on: Leptosphaeria nodorum (LEPTNO)
- test_protocol: In vitro fungitoxicity of hydrazones with and without copper towards Leptosphaeria nodorum (Example 26)
- Type: cell-based
- stated_conditions: Parastagonospora nodorum, 72 h, compound 0.05 μg/mL, copper-minus medium, 72 h at 25° C.; read-out: LEPTNO % Inhn. Minus Copper Observed
Numeric only. Scale: %

Enquiry: I am curious: what inhibition of growth at 0.05 µg/mL value has been reported for C/C(=N\NC(=O)c1cccc(C)c1)c1cc(Cl)cc(Cl)c1O [Example 278] ?
Return: 1.7

Enquiry: Look up inhibition of growth at 0.05 µg/mL: O=C(N/N=C/c1cc(Cl)c(Cl)cc1O)c1ccccc1 [Example 240]
Return: 0

Enquiry: Param item = C/C(=N\NC(=O)Cc1ccccc1)c1ccccc1O [Example 128] ; retrieve measured inhibition of growth at 0.05 µg/mL.
Return: 10.8

====

- System: Leptosphaeria nodorum (LEPTNO)
- test_protocol: In vitro fungitoxicity of hydrazones with and without copper towards Leptosphaeria nodorum (Example 26)
- Format: cell-based
- stated_conditions: copper-plus medium (CuCl2 10 μM); test compound Concn. 0.05 μg/mL; 72 h at 25° C.
Recorded measurements of LEPTNO % Inhn. Plus Copper Observed, one per entry
# output: bare number, implied unit %

molecular_string	measurement_unit	LEPTNO % Inhn. Plus Copper Observed
Cc1ccc(C(=O)N/N=C/c2cc(C(F)(F)F)ccc2O)cc1	%	98.2
O=C(N/N=C/c1cccc(Cl)c1O)c1ccc(Cl)cc1	%	98.4
O=C(N/N=C/c1cccc(C(F)(F)F)c1O)c1cccc(Cl)c1	%	98.4
Cc1ccc(C(=O)N/N=C/c2ccc(Cl)c(Cl)c2O)cc1	%	89.8
O=C(N/N=C/c1cc(Cl)cc(Cl)c1O)c1ccc(Cl)cc1O	%	97.6

Enquiry: Please report the recorded LEPTNO % Inhn. Plus Copper Observed for `Cc1cccc(O)c1C(=O)N/N=C/c1cc(Cl)cc(Cl)c1O` .
Return: 96.7

Enquiry: Field request: LEPTNO % Inhn. Plus Copper Observed | item: `COc1cccc(/C(C)=N/NC(=O)c2ccccc2)c1O`
Return: 97.9

Enquiry: Endpoint output: LEPTNO % Inhn. Plus Copper Observed of `C/C(=N\NC(=O)c1ccc(Cl)cc1)c1cc(F)cc(F)c1O` . Value?
Return: 98.0

Enquiry: Requested field: LEPTNO % Inhn. Plus Copper Observed. Item: `Cc1ccc(C(=O)N/N=C/c2cc(Cl)cc(Br)c2O)cc1`
Return: 97.9

====

This section presents compounds with their documented inhibition of growth at 0.05 µg/mL values.
- Test system: Leptosphaeria nodorum (LEPTNO)
- test_protocol: In vitro fungitoxicity of hydrazones with and without copper towards Leptosphaeria nodorum (Example 26)
- Assay type: cell-based
- stated_conditions: Parastagonospora nodorum, 72 h, copper-minus medium; test compound Concn. 0.05 μg/mL; 72 h at 25° C.; read-out: LEPTNO % Inhn. Minus Copper Observed
Express the result in % but write the number alone.

Enquiry: Give its inhibition of growth at 0.05 µg/mL value. Item: `C/C(=N\NC(=O)c1ccc(Cl)cc1)c1cccc(Cl)c1O`
Return: 0

====

Known inhibition at 0.05 µg/mL of a selection of molecules
- System: Septoria tritici isolate USA-184
- test_protocol: In vitro fungitoxicity of hydrazones with and without copper towards Septoria tritici (Example 30, Table 5)
- Format: cell-based
- stated_conditions: Zymoseptoria tritici; 0.05 μg/mL; copper-minus medium; 90 h; read-out: % Inhibition Minus copper Observed
The answer consists of two parts: a number and, after it, its unit.

Enquiry: Field request: inhibition at 0.05 µg/mL | item: Cc1ccccc1C(=O)N/N=C/c1cc(Cl)cc(Br)c1O [Example 162]
Return: 36.3%

Enquiry: Query (molecule): C/C(=N\NC(=O)Cc1ccccc1)c1cc(Cl)cc(Cl)c1O [Example 140] ; field requested: inhibition at 0.05 µg/mL
Return: 0%

====

- System: Phytophthora infestans
- Format: in vivo, Phytophthora infestans on tomato
- stated_conditions: hydrazone 50 ppm + 50 μM CuCl2.2H2O, applied 24 h before inoculation, assessed 7 days after inoculation, tomato
measured_quantity: TLB % Control (%)
Give the value in % but do not write % after it.

Consider the following illustrative entries.
molecular_string	TLB % Control, %
O=C(N/N=C/c1cc(Br)cc(Br)c1O)c1cc(Cl)ccc1Br	89.1
COc1ccc(/C(C)=N/NC(=O)c2ccccc2)c(O)c1	88.0
O=C(N/N=C/c1cc(Br)ccc1O)c1ccccc1	72.9
O=C(N/N=C/c1ccccc1O)c1ccc(-c2ccccc2)cc1	66.7
O=C(N/N=C/c1c(O)cccc1F)c1ccccc1	52.7

Enquiry: So what does the record say about TLB % Control for `COc1ccccc1C(=O)N/N=C(\C)c1cc(Cl)cc(Cl)c1O` ?
Return: 52.0
